Ref: paper PMC6745501

# key: entry, value: stoichiometry N
Target: T1, COP1^349–675,Lys422Ala WD40 domain (Arabidopsis, UniProt P43254 349-675, Lys422Ala)
T1 construct: COP1, Arabidopsis, WD40 domain, residues 349-675, Lys422Ala; also called COP1^Lys422Ala; not shown: His10, N-terminal, cleaved; Twin-Strep, N-terminal, cleaved
T1 sequence (looked up): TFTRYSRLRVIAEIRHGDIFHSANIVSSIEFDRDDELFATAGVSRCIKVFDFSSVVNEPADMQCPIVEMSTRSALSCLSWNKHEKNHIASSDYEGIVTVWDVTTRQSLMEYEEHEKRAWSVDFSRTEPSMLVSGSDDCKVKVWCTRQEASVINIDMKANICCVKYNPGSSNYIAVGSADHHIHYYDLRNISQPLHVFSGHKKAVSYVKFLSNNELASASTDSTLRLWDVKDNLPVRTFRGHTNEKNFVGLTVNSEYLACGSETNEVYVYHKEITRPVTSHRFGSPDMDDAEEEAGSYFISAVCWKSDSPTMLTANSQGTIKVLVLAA
Test: ITC; VP peptide (titrant, 500-3,000 μM) injected into COP1 WD40 in the cell at about 10-fold lower concentration; 150 mM NaCl, 20 mM HEPES 7.4, 2 mM BME; 25°C; one-site binding model
Conditions: both partners purified
API doc: respond with a numeric literal and nothing else, no unit.

Below: 4 binders and their reported stoichiometry N.
>  <binder>
RYAVVPDE (peptide, UniProt Q9FN03 406-413, looked up, also called UVR8 VP peptide; UVR8 peptide; source: synthetic peptide (Peptide Specialty Labs GmbH)) [UVR8^406–413 VP peptide]

>  <stoichiometry N>
0.87

$$$$
>  <binder>
GFGVVPSF (peptide, UniProt Q9SK53 287-294, looked up, COL3/BBX4 transcription factor, residues 287-294 (holds Phe288); also called COL3 VP peptide; COL3 peptide; source: synthetic peptide (Peptide Specialty Labs GmbH)) [COL3^287–294 VP peptide]

>  <stoichiometry N>
0.9

$$$$
>  <binder>
EIRRVPEFGG (peptide, UniProt O24646 39-48, looked up, ELONGATED HYPOCOTYL 5 (HY5) bZIP transcription factor, residues 39-48 (holds Arg41, Glu45); also called HY5 VP peptide; HY5 peptide; source: synthetic peptide (Peptide Specialty Labs GmbH)) [HY5^39–48 VP peptide]

>  <stoichiometry N>
0.83

$$$$
>  <binder>
EDQMVPSIT (peptide, UniProt Q43125 544-552, looked up, cryptochrome 1 (CRY1), Arabidopsis blue-light photoreceptor, residues 544-552 (holds Asp545); also called CRY1 VP peptide; CRY1 peptide; source: synthetic peptide (Peptide Specialty Labs GmbH)) [CRY1^544–552 VP peptide]

>  <stoichiometry N>
0.98

$$$$

query: # stoichiometry N lookup, item GYGIVPSF (peptide, UniProt Q39057 366-373, looked up, CONSTANS (CO/BBX1) transcription factor, residues 366-373; also called CO VP peptide; CONSTANS; source: synthetic peptide (Peptide Specialty Labs GmbH)) [CO^366–373 VP peptide]
result: 0.89
